# TARGET_OR_SYSTEM: Fatty acid amide hydrolase (FAAH) (Rattus norvegicus, UniProt P97612)
# Sequence (P97612 whole entry): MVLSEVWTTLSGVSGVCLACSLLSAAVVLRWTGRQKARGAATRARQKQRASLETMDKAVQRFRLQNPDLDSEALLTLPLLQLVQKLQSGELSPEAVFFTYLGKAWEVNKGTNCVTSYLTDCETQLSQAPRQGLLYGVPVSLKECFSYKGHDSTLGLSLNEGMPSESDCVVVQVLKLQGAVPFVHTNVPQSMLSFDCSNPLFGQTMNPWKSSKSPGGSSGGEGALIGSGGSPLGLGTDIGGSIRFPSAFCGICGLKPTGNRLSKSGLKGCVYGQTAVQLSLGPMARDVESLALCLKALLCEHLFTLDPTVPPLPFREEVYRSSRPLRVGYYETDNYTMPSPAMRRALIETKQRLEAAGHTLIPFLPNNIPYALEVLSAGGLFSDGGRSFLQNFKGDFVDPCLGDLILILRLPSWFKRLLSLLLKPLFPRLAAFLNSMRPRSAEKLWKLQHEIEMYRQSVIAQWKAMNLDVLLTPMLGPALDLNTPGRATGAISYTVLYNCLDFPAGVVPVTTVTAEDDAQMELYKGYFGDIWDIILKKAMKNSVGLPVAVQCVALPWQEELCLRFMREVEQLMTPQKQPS
VALUE_TYPE: IC50 (nM)
Give bare numbers, in nM.

Q: Value lookup for IC50; key = COc1cc(Nc2ncc(F)c(Nc3ccc4c(n3)NC(=O)C(C)(C)O4)n2)cc(OC)c1OC [R406]
Result: 1510

====

# TARGET_OR_SYSTEM: Phosphodiesterase PDE5 (Homo sapiens)
VALUE_TYPE: IC50 (nM)
Numbers only, in nM.

Q: Which measured IC50 value corresponds to COc1cc(Nc2ncc(F)c(Nc3ccc4c(n3)NC(=O)C(C)(C)O4)n2)cc(OC)c1OC [R406] ?
Result: 308

====

# TARGET_OR_SYSTEM: Lipoxygenase 5-LO (Homo sapiens)
# Sequence (P09917 whole entry): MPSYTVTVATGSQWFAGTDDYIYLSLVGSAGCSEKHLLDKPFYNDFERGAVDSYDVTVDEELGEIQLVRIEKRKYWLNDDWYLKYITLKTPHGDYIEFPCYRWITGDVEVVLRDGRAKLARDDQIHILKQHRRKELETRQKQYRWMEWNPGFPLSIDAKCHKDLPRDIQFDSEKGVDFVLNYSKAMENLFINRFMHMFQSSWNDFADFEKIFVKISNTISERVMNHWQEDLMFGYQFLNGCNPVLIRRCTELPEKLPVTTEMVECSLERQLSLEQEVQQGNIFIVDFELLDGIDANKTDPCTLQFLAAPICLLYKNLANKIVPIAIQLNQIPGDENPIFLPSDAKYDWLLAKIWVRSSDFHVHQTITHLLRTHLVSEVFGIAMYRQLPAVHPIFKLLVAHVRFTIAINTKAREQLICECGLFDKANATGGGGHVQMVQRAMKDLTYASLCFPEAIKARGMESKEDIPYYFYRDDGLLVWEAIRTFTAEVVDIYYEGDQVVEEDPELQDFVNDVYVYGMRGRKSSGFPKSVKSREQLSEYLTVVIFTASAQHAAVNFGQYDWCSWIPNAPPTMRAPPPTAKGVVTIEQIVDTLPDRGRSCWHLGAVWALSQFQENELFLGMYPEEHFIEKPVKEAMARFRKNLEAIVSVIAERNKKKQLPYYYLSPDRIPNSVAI
VALUE_TYPE: pIC50
One number for each entry, as −log10 of the molar value.

Q: Bench note: what pIC50 did COc1cc(Nc2ncc(F)c(Nc3ccc4c(n3)NC(=O)C(C)(C)O4)n2)cc(OC)c1OC [R406] show?
Result: 5.26

====

# TARGET_OR_SYSTEM: Adenosine A3 receptor (Homo sapiens)
# Sequence (P0DMS8 whole entry): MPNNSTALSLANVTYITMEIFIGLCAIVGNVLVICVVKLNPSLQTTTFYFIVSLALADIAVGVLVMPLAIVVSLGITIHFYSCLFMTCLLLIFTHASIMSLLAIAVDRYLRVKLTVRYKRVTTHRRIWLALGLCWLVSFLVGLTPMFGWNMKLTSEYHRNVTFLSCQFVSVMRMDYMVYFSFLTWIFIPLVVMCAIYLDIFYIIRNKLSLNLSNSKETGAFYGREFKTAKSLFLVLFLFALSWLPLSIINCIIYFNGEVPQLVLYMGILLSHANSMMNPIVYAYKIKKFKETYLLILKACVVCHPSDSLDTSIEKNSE
VALUE_TYPE: pKi
Give bare numbers, as −log10 of the molar value.

Q: Field request: pKi | item: COc1cc(Nc2ncc(F)c(Nc3ccc4c(n3)NC(=O)C(C)(C)O4)n2)cc(OC)c1OC [R406]
Result: 7.77

====

# Type: physicochemical
# CONDITION: solubility in DMSO, 100% DMSO
VALUE_TYPE: solubility

Q: Given the compound `COc1cc(Nc2ncc(F)c(Nc3ccc4c(n3)NC(=O)C(C)(C)O4)n2)cc(OC)c1OC` , what is its reported solubility?
Result: ~140 mM

====

# TARGET_OR_SYSTEM: Cathepsin S (Homo sapiens, UniProt P25774)
# Sequence (P25774 115-331): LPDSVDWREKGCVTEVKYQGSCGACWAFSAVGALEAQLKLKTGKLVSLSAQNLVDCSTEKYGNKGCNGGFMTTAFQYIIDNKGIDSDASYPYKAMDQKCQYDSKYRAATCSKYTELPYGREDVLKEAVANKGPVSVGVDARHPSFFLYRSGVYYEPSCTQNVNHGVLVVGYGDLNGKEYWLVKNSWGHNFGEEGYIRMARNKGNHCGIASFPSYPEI
VALUE_TYPE: IC50 (µM)
Numbers only, in µM.

Q: I'm curious: which IC50 was measured for COc1cc(Nc2ncc(F)c(Nc3ccc4c(n3)NC(=O)C(C)(C)O4)n2)cc(OC)c1OC [R406] tested on Cathepsin S (Homo sapiens, UniProt P25774)?
Result: 11.9
